# tested-target: P-gp (Homo sapiens, UniProt P08183)
# Sequence (P08183 whole entry): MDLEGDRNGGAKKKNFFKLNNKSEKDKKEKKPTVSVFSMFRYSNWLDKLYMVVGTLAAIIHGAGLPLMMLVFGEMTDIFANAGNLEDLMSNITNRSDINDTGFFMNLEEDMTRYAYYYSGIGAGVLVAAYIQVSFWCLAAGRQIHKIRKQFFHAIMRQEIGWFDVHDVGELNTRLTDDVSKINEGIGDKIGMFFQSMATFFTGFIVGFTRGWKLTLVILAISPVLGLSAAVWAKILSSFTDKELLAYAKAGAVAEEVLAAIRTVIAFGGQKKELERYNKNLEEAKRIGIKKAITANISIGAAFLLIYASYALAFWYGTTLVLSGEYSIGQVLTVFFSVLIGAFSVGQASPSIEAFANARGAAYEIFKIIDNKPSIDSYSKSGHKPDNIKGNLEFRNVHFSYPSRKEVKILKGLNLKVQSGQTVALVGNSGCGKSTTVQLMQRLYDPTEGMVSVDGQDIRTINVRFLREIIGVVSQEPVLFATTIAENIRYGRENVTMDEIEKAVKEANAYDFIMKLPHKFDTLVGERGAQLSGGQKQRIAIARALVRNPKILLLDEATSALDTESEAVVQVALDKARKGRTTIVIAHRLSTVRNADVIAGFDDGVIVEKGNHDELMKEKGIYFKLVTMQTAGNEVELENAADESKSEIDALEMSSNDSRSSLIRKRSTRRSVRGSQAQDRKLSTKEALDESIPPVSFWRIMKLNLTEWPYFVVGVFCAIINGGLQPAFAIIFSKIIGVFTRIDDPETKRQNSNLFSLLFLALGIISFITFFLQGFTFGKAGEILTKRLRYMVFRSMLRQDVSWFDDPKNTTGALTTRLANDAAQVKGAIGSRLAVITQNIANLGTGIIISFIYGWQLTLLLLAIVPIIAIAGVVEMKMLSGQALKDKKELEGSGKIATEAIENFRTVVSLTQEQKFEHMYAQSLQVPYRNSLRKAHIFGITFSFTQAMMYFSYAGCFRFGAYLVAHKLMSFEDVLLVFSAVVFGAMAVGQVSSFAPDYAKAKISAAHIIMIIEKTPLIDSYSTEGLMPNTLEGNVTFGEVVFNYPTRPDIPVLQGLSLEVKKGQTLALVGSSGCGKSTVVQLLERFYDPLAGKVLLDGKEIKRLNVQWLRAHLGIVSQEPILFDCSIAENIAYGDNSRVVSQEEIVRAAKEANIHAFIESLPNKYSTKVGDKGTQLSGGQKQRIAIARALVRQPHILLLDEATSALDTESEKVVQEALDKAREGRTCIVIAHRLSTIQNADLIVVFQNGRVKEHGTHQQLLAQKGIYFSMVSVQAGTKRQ
# test-method-notes: P-gp transport studies across MDCKII-MDR1 monolayers
# condition-context: with 5 × 10^−6 M inhibitor 15; 5 × 10^−6 M dye, 4.3 mg mL^−1 BSA; ± SD
assay-readout: PBA, transport in secretory direction (+inh)

Consider the reported PBA, transport in secretory direction (+inh) for these compounds:
{"columns": ["chemical-string", "tested-target", "result"],
 "data": [
  ["CN1CCC(C)(C)c2cc3c(cc21)[Se]c1cc2c(cc1=C3c1ccc(C(=O)N3CCCCC3)s1)C(C)(C)CC[N+]=2C.[Cl-]", "P-gp (Homo sapiens, UniProt P08183)", "4.0 ± 0.7 ×10^−9 m s^−1"],
  ["C[N+]1=c2cc3c(cc2C(C)(C)CC1)=C(c1ccc(C(=O)N2CCCCC2)s1)c1cc2c4c(c1[Se]3)CCCN4CCC2.[Cl-]", "P-gp (Homo sapiens, UniProt P08183)", "2.8 ± 0.2 ×10^−9 m s^−1"]
]}

Here is the next item to consider.
Please report the measured PBA, transport in secretory direction (+inh) for `C[N+]1=c2cc3c(cc2C(C)(C)CC1)=C(c1ccc(C(=S)N2CCCCC2)s1)c1cc2c4c(c1[Se]3)CCCN4CCC2.[Cl-]`
0.32 ± 0.2 ×10^−9 m s^−1

----------
# tested-target: P-gp (Homo sapiens)
# test-method-notes: P-gp transport studies across MDCKII-MDR1 monolayers
# condition-context: no inhibitor
# Lookup of reported PBA/PAB keyed by entry

{"columns": ["chemical-string", "assay-readout", "result"],
 "data": [
  ["C[N+]1=c2cc3c(cc2C(C)(C)CC1)=C(c1ccc(C(=O)N2CCCCC2)s1)c1cc2c4c(c1[Se]3)CCCN4CCC2.[Cl-]", "PBA/PAB", 48],
  ["CN1CCC(C)(C)c2cc3c(cc21)[Se]c1cc2c(cc1=C3c1ccc(C(=O)N3CCCCC3)s1)C(C)(C)CC[N+]=2C.[Cl-]", "PBA/PAB", 36],
  ["S=C(c1ccc(C2=c3cc4c5c(c3[Se]c3c2cc2c6c3CCCN6CCC2)CCC[N+]=5CCC4)s1)N1CCCCC1.[Cl-]", "PBA/PAB", 57],
  ["O=C(c1ccc(C2=c3cc4c5c(c3[Se]c3c2cc2c6c3CCCN6CCC2)CCC[N+]=5CCC4)s1)N1CCCCC1.[Cl-]", "PBA/PAB", 37],
  ["C[N+]1=c2cc3c(cc2C(C)(C)CC1)=C(c1ccc(C(=S)N2CCCCC2)s1)c1cc2c4c(c1[Se]3)CCCN4CCC2.[Cl-]", "PBA/PAB", 20]
]}

Could you now consider this next molecule?
Kindly indicate its recorded PBA/PAB. Item: `CN1CCC(C)(C)c2cc3c(cc21)[Se]c1cc2c(cc1=C3c1ccc(C(=S)N3CCCCC3)s1)C(C)(C)CC[N+]=2C.[Cl-]`
4

----------
Below, each entry is listed with its recorded % survival HUT-78.
# System: HUT-78 cells
# Type: cell-based, human
Entry rule: numbers only, all in %.

{"columns": ["chemical-string", "output-unit", "% survival HUT-78"],
 "data": [
  ["CN1CCC(C)(C)c2cc3c(-c4ccc(C(=S)N5CCCCC5)s4)c4ccc(=[N+](C)C)cc-4[se]c3cc21.[Cl-]", "%", 8.5],
  ["CN1CCC(C)(C)c2cc3c(cc21)[Se]c1cc2c(cc1=C3c1ccc(C(=O)N3CCCCC3)s1)C(C)(C)CC[N+]=2C.[Cl-]", "%", 5.4],
  ["C[N+]1=c2cc3c(cc2C(C)(C)CC1)=C(c1ccc(C(=S)N2CCCCC2)s1)c1cc2c4c(c1[Se]3)CCCN4CCC2.[Cl-]", "%", 5.1],
  ["C[N+]1=c2cc3c(cc2C(C)(C)CC1)=C(c1ccc(C(=O)N2CCCCC2)s1)c1cc2c4c(c1[Se]3)CCCN4CCC2.[Cl-]", "%", 6.0]
]}

Moving on to the next compound.
# return recorded % survival HUT-78 for entry `O=C(c1ccc(C2=c3cc4c5c(c3[Se]c3c2cc2c6c3CCCN6CCC2)CCC[N+]=5CCC4)s1)N1CCCCC1.[Cl-]`
9.3

Provenance of the data: paper PMC5815522
